Test system: HCT-116 colon
experiment notes: NCI tumour cell line growth inhibition, 48 h
Let's look at some molecules and their measured TGI.

# count of solved cases: 6
Cn1cc(C2=C(Oc3ccccc3)C(=O)NC2=O)c2ccccc21
> 25 µM
COc1ccc(C(=O)NCCC2=CCCCC2)cc1
> 100 µM
CNC(=O)Oc1ccc(C(=S)Nc2ccc(Br)cc2)cc1
46.1 µM
CCOC(=O)Cn1c(=O)[nH]c(=O)c2c1ncn2Cc1ccccc1
> 100 µM
CNS(=O)(=O)NNS(=O)(=O)c1cccc([N+](=O)[O-])c1
> 100 µM
Cc1cc(C)nc(NS(=O)(=O)c2ccc(NC(=O)c3cccc4c(Nc5ccc(S(=O)(=O)Nc6nc(C)cc(C)n6)cc5)c5ccc(Cl)cc5nc34)cc2)n1
> 100 µM

Query string: Return reported TGI; argument: C=C1c2nc3ccccc3n2C=C(c2ccc(OC)cc2)N1c1ccccc1
Result string: > 100 µM

Query string: Return reported TGI; argument: O=[N+]([O-])c1ccccc1N=Nc1c(O)[nH]c2ccc(S(=O)(=O)O)cc12
Result string: > 100 µM

Query string: Return reported TGI; argument: CCCN1CCN(c2ccc3nc(-c4ccc5nc(-c6ccc(C(F)(F)F)cc6)[nH]c5c4)[nH]c3c2)CC1
Result string: 2.71 µM

Query string: Return reported TGI; argument: CC(C)(C)C1=Nc2c(Br)cc(C(C)(C)C)cc2C(C(F)(F)F)(C(F)(F)F)O1
Result string: > 100 µM

Sourced from PubChem BioAssay (NCI)
